experiment: Cmax in C57 mouse at 10 mg/kg, po; type: ADME, organism-based; parameters: dose 10 mg/kg, route oral; conditions: in vivo
What Cmax was measured for each of the following?
Numeric only. Scale: ng/mL

Need Cmax, item Cn1[nH]c2c(COc3ccc(-c4cc(F)c(F)cc4F)cc3)cccc2c1=O
254

Do the same for O=c1c2cccc(COc3ccc(-c4cc(F)c(F)cc4F)cc3)c2[nH]n1CCO please
1350

====

molecular target: Glycogen [starch] synthase, muscle (Homo sapiens) (UniProt P13807); experiment: Activation of human recombinant muscle GYS1 expressed in insect sf9 cells using glycogen and UDP-glucose as substrates assessed as concentration required to 200% activation by spectrophotometry
Sequence (P13807 whole entry): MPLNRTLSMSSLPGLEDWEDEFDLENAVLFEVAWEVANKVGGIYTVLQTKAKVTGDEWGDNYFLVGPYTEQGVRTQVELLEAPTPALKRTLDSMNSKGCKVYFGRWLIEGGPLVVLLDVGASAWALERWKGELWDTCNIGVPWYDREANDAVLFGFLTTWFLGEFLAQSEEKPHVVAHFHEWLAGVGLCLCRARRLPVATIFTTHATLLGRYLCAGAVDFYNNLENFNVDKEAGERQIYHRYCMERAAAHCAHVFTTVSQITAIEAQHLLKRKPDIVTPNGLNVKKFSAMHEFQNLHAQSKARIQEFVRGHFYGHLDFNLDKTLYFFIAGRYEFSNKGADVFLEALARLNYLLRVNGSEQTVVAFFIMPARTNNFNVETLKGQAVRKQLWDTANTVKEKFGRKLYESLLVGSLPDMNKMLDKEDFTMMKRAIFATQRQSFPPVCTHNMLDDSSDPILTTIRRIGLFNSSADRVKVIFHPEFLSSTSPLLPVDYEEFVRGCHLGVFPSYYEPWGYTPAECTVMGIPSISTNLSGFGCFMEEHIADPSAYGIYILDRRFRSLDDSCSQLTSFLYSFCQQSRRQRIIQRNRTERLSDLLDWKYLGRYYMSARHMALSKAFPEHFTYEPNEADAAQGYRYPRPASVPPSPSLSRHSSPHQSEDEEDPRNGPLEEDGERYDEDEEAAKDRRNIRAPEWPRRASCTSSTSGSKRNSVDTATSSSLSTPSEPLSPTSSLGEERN
Observable: Activity
// unit must come after the numeric part

Value lookup for Activity; key = COc1cc(F)c(F)cc1-c1ccc(OCc2cccc3c(=O)n(C[C@@H](O)CO)[nH]c23)cc1
0.06 µM

Can you handle O=c1o[nH]c2c(COc3ccc(-c4cc(F)c(F)cc4F)cc3)cccc12 next?
0.41 µM

Thanks! And O=c1c2cccc(COc3ccc(-c4cc(F)c(F)cc4F)cc3)c2[nH]n1C[C@H](O)CO ?
0.41 µM
